Kindly supply the reported IC50 values for the records listed here.
# assayedTarget: hNET (Homo sapiens)
# Sequence (P23975 whole entry): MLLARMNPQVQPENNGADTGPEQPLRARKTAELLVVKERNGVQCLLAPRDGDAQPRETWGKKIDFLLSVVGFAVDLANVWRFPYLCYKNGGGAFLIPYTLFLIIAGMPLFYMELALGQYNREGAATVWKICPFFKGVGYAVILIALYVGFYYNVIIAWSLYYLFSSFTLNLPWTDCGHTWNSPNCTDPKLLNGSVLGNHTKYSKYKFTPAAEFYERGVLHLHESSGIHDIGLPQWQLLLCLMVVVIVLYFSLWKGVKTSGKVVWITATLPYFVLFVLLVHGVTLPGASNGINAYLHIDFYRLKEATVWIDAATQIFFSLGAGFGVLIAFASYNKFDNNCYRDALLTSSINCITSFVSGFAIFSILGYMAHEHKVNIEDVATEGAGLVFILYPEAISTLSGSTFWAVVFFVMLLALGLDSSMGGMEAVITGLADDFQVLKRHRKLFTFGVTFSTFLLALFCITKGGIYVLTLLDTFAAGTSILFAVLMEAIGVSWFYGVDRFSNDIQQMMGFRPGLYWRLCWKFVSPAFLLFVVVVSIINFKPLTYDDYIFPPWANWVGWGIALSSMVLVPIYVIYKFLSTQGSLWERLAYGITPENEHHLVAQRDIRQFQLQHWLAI
# assayRemarks: hNET neurotransmitter uptake assay (3H-NE), Assay 2
# Type: cell-based
# Design: expressed in transfected cells; host or cells: HEK-293
# testParameters: norepinephrine reuptake inhibition, 3H-NE uptake, HEK-293 hNET cells (values without asterisk); read-out: NET pIC50 (converted)

CCC[C@@H](Oc1cccc(Cl)c1Cl)[C@@H]1CCNC1 [Example 4-25] : ≤ 10 nM
CC[C@@H](Oc1c(Cl)ccc(Cl)c1Cl)[C@H]1CCNC1 [Example 2-38] : ≤ 10 nM
CC[C@H](Oc1ccc(Cl)cc1C(F)(F)F)[C@H]1CCNC1 [Example 2-75] : ≤ 10 nM
Cc1c(Cl)cccc1O[C@H](C(C)C)[C@H]1CCNC1 [Example 6-40] : ≤ 10 nM
COc1cc(Cl)ccc1O[C@@H](C1CC1)[C@H]1CCNC1 [Example 16-37] : ≤ 10 nM
COc1cc(Cl)ccc1O[C@H](C1CC1)[C@H]1CCNC1 [Example 16-38] : ≤ 100 nM
CC(C)C[C@H](Oc1ccc(Cl)c(F)c1F)[C@H]1CCNC1 [Example 10-68] : ≤ 10 nM
CC(C)C[C@@H](Oc1ccc(Cl)cc1)[C@H]1CCNC1 [Example 10-11] : ≤ 10 nM

Batch request: IC50 for each of the following molecules.
1. CC[C@@H](Oc1c(F)ccc(F)c1Cl)[C@H]1CCNC1 [Example 2-41]
2. CC(C)CC(Oc1c(F)ccc(Cl)c1Cl)C1CCNC1 (centres unmarked) [Example 10-64]
3. Cc1ccc(O[C@@H](C2CC2)[C@H]2CCNC2)c(Br)c1 [Example 16-25]

Result:
["≤ 10 nM", "≤ 10 nM", "≤ 10 nM"]

Report IC50 for each item below.
1. CC(C)CC(Oc1cccc(F)c1)C1CCNC1 (centres unmarked) [Example 10-26]
2. CC(C)[C@H](Oc1ccc(Cl)c(Cl)c1F)[C@H]1CCNC1 [Example 6-7]
3. CC(C)CC(Oc1cccc(C(F)(F)F)c1F)C1CCNC1 (centres unmarked) [Example 10-20]
4. CC(C)C[C@H](Oc1cccc(F)c1Cl)[C@H]1CCNC1 [Example 10-25]
5. CC(C)[C@H](Oc1cc(Cl)cc(Cl)c1)[C@H]1CCNC1 [Example 6-66]
6. Clc1ccc(Cl)c(O[C@@H](C2CC2)[C@H]2CCNC2)c1Cl [Example 16-58]
7. COc1ccccc1O[C@@H](CC(C)C)[C@H]1CCNC1 [Example 10-4]
8. Fc1cccc(O[C@H](C2CC2)[C@H]2CCNC2)c1Cl [Example 16-10]

Result:
1: ≤ 10 nM; 2: ≤ 10 nM; 3: ≤ 100 nM; 4: ≤ 10 nM; 5: ≤ 100 nM; 6: ≤ 10 nM; 7: ≤ 10 nM; 8: ≤ 100 nM

Task: I am curious: what IC50 value has been reported for CC(C)C[C@H](Oc1cccc(F)c1)[C@H]1CCNC1 [Example 10-5] ?
Result: ≤ 10 nM
